Data origin: ChEMBL document CHEMBL6083215

Exercise: for every item that follows, state its recorded GI50.
Tested on: HCC 2998
Assay: Growth inhibition of human HCC 2998 cells
Format: functional
Just the number please, in nM, no unit attached.

Query: Consider the molecule shown here: CCCCCCCCC/C=C(/C)C[C@]1(C)C[C@H](C)[C@@H](CC(=O)O)OO1 What is its recorded GI50?
Response: 980

Query: Consider the molecule shown here: COc1cccc2c1C(=O)c1c(O)c3c(c(O)c1C2=O)C[C@@](O)(C(=O)CO)C[C@@H]3O[C@H]1C[C@H](N)[C@H](O)[C@H](C)O1 What is its recorded GI50?
Response: 120

Query: Consider the molecule shown here: CCCCCCCC/C=C(/C)C[C@]1(C)C[C@H](C)[C@@H](CC(=O)O)OO1 What is its recorded GI50?
Response: 600
